Where do these numbers come from? They come from patent US20230075521A1.

test: Rat PK study, resveratrol in plasma at 30 min; format: in vivo; conditions: male, oral, 50 mg/kg, Sprague-Dawley rats, single dose, 30 min after treatment
readout-label: concentration at 30 min (µg/mL)
Give bare numbers, in µg/mL.

Task item: Please give the measured concentration at 30 min for this molecule: Oc1ccc(/C=C/c2cc(O)cc(O)c2)cc1 [RSV, (trans-)resveratrol]
Reply: 0.18
